target: UniProtKB P30559; assay: Agonist activity at oxytocin receptor (unknown origin) expressed in CHO cells by IP-1 accumulation assay
Sequence (P30559 whole entry): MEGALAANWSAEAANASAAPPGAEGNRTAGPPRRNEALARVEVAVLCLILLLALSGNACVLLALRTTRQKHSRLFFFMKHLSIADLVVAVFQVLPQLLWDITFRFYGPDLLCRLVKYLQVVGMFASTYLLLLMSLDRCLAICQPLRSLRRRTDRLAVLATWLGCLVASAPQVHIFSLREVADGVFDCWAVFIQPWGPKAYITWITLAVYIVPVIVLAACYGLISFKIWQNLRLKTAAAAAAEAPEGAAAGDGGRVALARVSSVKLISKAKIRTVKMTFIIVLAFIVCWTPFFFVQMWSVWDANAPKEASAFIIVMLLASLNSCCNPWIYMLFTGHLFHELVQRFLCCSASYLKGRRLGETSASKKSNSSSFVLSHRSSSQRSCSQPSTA
pEC50: −log10 of the molar value.

{"columns": ["COMPOUND", "pEC50"],
 "data": [
  ["Cc1cc(C(=O)N2Cc3cnn(C)c3Nc3ccccc32)ccc1CNC(=O)N1C[C@@H](n2cc(CO)nn2)C[C@H]1C(=S)N(C)C", 9.85],
  ["Cc1cc(C(=O)N2Cc3cnn(C)c3Nc3ccccc32)ccc1CNC(=O)N1C[C@H](n2cc(CF)nn2)C[C@H]1C(=S)N(C)C", 9.51],
  ["Cc1cc(C(=O)N2Cc3cnn(C)c3Nc3ccccc32)ccc1CNC(=O)N1C[C@H](n2cc(CC3NC(=O)NC3=O)nn2)C[C@H]1C(=S)N(C)C (stereo partly specified)", 9.59],
  ["Cc1cc(C(=O)N2Cc3cnn(C)c3Nc3ccccc32)ccc1CNC(=O)N1C[C@H](n2cc(CO)nn2)C[C@H]1C(=S)N(C)C", 9.82],
  ["Cc1cc(C(=O)N2Cc3cnn(C)c3Nc3ccccc32)ccc1CNC(=O)N1C[C@H](n2cc(COCCF)nn2)C[C@H]1C(=S)N(C)C", 9.26],
  ["Cc1cc(C(=O)N2Cc3cnn(C)c3Nc3ccccc32)ccc1CNC(=O)N1C[C@H](n2cc(CCc3nnn[nH]3)nn2)C[C@H]1C(=S)N(C)C", 8.71]
]}

====

biological target: Vasopressin V1a receptor (Homo sapiens, UniProt P37288); assay: Antagonist activity at V1A receptor (unknown origin) by calcium signal assay
Sequence (P37288 whole entry): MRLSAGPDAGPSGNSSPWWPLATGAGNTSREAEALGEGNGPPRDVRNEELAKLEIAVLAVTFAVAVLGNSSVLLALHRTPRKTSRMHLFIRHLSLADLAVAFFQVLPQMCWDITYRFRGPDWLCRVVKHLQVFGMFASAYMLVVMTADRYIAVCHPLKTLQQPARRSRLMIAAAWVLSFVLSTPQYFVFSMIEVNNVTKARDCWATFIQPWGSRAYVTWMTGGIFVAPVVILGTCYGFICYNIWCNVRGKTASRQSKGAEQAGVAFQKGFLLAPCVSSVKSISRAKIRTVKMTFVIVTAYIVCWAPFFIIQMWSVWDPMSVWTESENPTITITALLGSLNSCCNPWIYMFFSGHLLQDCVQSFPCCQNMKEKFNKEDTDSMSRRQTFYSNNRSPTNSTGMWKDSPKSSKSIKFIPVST
pIC50: −log10 of the molar value.

{"columns": ["COMPOUND", "SYSTEM", "RESULT COMPARATOR", "pIC50"],
 "data": [
  ["Cc1cc(C(=O)N2Cc3cnn(C)c3Nc3ccccc32)ccc1CNC(=O)N1C[C@@H](n2cc(CO)nn2)C[C@H]1C(=S)N(C)C", "Vasopressin V1a receptor (Homo sapiens, UniProt P37288)", "=", 6.15],
  ["Cc1cc(C(=O)N2Cc3cnn(C)c3Nc3ccccc32)ccc1CNC(=O)N1C[C@H](n2cc(CO)nn2)C[C@H]1C(=S)N(C)C", "Vasopressin V1a receptor (Homo sapiens, UniProt P37288)", "=", 6.02],
  ["Cc1cc(C(=O)N2Cc3cnn(C)c3Nc3ccccc32)ccc1CNC(=O)N1C[C@H](n2cc(CCc3nnn[nH]3)nn2)C[C@H]1C(=S)N(C)C", "Vasopressin V1a receptor (Homo sapiens, UniProt P37288)", "<", 5.00],
  ["Cc1cc(C(=O)N2Cc3cnn(C)c3Nc3ccccc32)ccc1CNC(=O)N1C[C@H](n2cc(CC3NC(=O)NC3=O)nn2)C[C@H]1C(=S)N(C)C (some centres undefined)", "Vasopressin V1a receptor (Homo sapiens, UniProt P37288)", "=", 6.41]
]}
